- protocol description: Challenge with monothiol reductant GSH, cell-free fluorogenic cargo release
- Format: physicochemical
- measurement context: 10 μM probe, 3 h timepoint, GSH up to 10 mM
experimental endpoint: sensitivity to GSH in GSH titration, signal F/F^TCEP

Would you please look over these solved cases?
[
  {
    "compound": "CN1CCN(C(=O)CCN(C(=O)Oc2ccc(Cl)cc2-c2nc3ccc(Cl)cc3c(=O)[nH]2)[C@H]2CCS[Se]C2)CC1 [P6]",
    "observed value": "completely insensitive"
  },
  {
    "compound": "CN1CCN(C(=O)CCN(C(=O)Oc2ccc(Cl)cc2-c2nc3ccc(Cl)cc3c(=O)[nH]2)[C@H]2CC[Se]SC2)CC1 [P7]",
    "observed value": "very low sensitivity"
  },
  {
    "compound": "CN(C(=O)Oc1ccc(Cl)cc1-c1nc2ccc(Cl)cc2c(=O)[nH]1)C1CCS[Se]C1 (centres unmarked) [P1]",
    "observed value": "completely insensitive"
  },
  {
    "compound": "CN(C(=O)Oc1ccc(Cl)cc1-c1nc2ccc(Cl)cc2c(=O)[nH]1)C1CC[Se]SC1 (centres unmarked) [P2]",
    "observed value": "very low sensitivity"
  }
]

Read the next record carefully.
response.value for CN(C(=O)Oc1ccc(Cl)cc1-c1nc2ccc(Cl)cc2c(=O)[nH]1)C1CC[Se][Se]C1 (centres unmarked) [P3] (field: sensitivity to GSH in GSH titration, signal F/F^TCEP) = completely insensitive

====

- Tested on: HeLa cells
- protocol description: In vitro cell viability assay (resazurin)
- Assay type: cell-based, human
- measurement context: 48 h incubation, read-out: EC50 (antiproliferation / cell viability)
pEC50: −log10 of the molar value.
experimental endpoint: pEC50

response.value for "CN(C(=O)Oc1cc2c(c3ccccc13)[C@H](CCl)CN2C(=O)c1cc2cc(OCCCN3CCC3)ccc2[nH]1)[C@H]1CCS[Se]C1" (field: pEC50) = > 7.00
